So I've got pKi readings for Voltage-gated inwardly rectifying potassium channel KCNH2 (Homo sapiens), take a look.
Answers are plain numbers, as −log10 of the molar value.

chemicalStructure: Nc1ccnc(N2CCC(n3c(=O)n(-c4ccccc4)c4cccnc43)CC2)c1
pKi: 6.04

Switching to the query record.
Query: Determine its reported pKi: COc1ccc(-n2c(=O)n(C3CCN(c4cc(N)ccn4)CC3)c3ncccc32)cc1
Reply: 6.06

* * *

assay: Selectivity for human recombinant DOR over mu opioid receptor
assayMetric: fold change (FC)
One number for each entry.

Below: 2 molecules and their reported fold change (FC).
chemicalStructure: Nc1ccnc(N2CCC(C(=O)N3CCc4ccccc4C3)(c3ccccc3)CC2)c1
fold change (FC): 50

chemicalStructure: Nc1ccnc(N2CCC(NC(=O)c3ccccn3)(c3ccccc3)CC2)c1
fold change (FC): 50

Query: Entry COc1ccc(C(=O)NC2(c3ccccc3)CCN(c3cc(N)ccn3)CC2)cc1Cl needs its fold change (FC) filled in; supply it.
Reply: 50

* * *

assay: Metabolic stability in human liver microsomes assessed as intrinsic clearance; format: ADME, Microsome
assayMetric: microsomal CLint (µL/min/mg)
Numbers only, in µL/min/mg.

Worked examples, 4 compounds total:
compound: COc1ccc(C(=O)NC2(c3ccccc3)CCN(c3cc(N)ccn3)CC2)cc1Cl
microsomal CLint [µL/min/mg]: 69
//
compound: COc1ccc(CNC(=O)C2(c3ccccc3)CCN(c3cc(N)ccn3)CC2)cc1
microsomal CLint [µL/min/mg]: 40
//
compound: Nc1ccnc(N2CCC(n3c(=O)n(Cc4ccccc4)c4cccnc43)CC2)c1
microsomal CLint [µL/min/mg]: 20
//
compound: Nc1ccnc(N2CCC3(CC2)OC(c2ccccc2)c2ccccc23)c1 (stereo not given)
microsomal CLint [µL/min/mg]: 10

For each of the items listed, what is its microsomal CLint?
1. Nc1ccnc(N2CCC(NC(=O)c3ccccn3)(c3ccccc3)CC2)c1
2. Nc1ccnc(N2CCC(C(=O)Nc3ccc4ccccc4n3)(c3ccccc3)CC2)c1
3. Nc1ccnc(N2CCC(n3c(=O)n(-c4ccccc4)c4cccnc43)CC2)c1
4. COc1ccc(C(=O)NC2(c3ccccc3)CCN(c3cc(N)ccn3)CC2)c(OC)c1
5. CCOC(=O)N1CCN(C(=O)C2(c3ccccc3)CCN(c3cc(N)ccn3)CC2)CC1
6. COc1ccc(-n2c(=O)n(C3CCN(c4cc(N)ccn4)CC3)c3ncccc32)cc1
7. Nc1ccnc(N2CCC(N(C(=O)C3CCCCC3)c3ccccn3)CC2)c1
8. Nc1ccnc(N2CCC(n3c(=O)n(CC4CC4)c4cccnc43)CC2)c1

Reply:
14
22
19
43
62
23
80
13

# batch: return microsomal CLint for each of the 4 compounds below
1. COc1cccc(C(=O)N(c2ccccn2)C2CCN(c3cc(N)ccn3)CC2)c1
2. Nc1ccnc(N2CCC(C(=O)N3CCc4ccccc4C3)(c3ccccc3)CC2)c1
3. Nc1ccnc(N2CCC(NC(=O)[C@@H]3CCCO3)(c3ccccc3)CC2)c1
4. COc1ccc(C(=O)N(c2cc(C)ccn2)C2CCN(c3cc(N)ccn3)CC2)cc1

Reply:
17
46
13
12

Query: Report measured microsomal CLint; entry is CCN(CC)C(=O)[C@H]1OC2(CCN(c3cc(N)ccn3)CC2)c2ccccc21
Reply: 13

* * *

target: Mu-type opioid receptor (Homo sapiens); test: Agonist activity at mu opioid receptor; format: functional
Sequence (P35372 whole entry): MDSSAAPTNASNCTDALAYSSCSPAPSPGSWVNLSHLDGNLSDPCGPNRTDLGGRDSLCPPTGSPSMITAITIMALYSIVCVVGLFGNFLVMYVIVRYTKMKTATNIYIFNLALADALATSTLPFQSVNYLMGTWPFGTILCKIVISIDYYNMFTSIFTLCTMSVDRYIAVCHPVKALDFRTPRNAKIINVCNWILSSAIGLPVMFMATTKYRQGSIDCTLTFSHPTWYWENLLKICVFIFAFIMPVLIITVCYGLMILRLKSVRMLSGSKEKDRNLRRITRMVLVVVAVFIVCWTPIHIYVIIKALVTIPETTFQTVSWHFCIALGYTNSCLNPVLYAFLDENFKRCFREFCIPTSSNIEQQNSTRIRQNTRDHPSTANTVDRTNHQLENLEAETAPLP
assayMetric: EC50

Query: For CC(=O)C1(c2ccccc2)CCN(c2cc(N)ccn2)CC1 , write its EC50.
Reply: > 10 µM

* * *

assay: Clearance in rat; details: in vivo
assayMetric: clearance

Query: State, in one line, measured clearance of CN(C)C(=O)[C@H]1CC2(CCN(c3cc(N)ccn3)CC2)c2ccccc21
Reply: > 70 mL/min/kg

* * *

Hi there, I'd appreciate the recorded log10(Ki) for every entry that follows.
target: Voltage-gated inwardly rectifying potassium channel KCNH2 (Homo sapiens); test: Inhibition of human ERG
Sequence (Q12809 whole entry): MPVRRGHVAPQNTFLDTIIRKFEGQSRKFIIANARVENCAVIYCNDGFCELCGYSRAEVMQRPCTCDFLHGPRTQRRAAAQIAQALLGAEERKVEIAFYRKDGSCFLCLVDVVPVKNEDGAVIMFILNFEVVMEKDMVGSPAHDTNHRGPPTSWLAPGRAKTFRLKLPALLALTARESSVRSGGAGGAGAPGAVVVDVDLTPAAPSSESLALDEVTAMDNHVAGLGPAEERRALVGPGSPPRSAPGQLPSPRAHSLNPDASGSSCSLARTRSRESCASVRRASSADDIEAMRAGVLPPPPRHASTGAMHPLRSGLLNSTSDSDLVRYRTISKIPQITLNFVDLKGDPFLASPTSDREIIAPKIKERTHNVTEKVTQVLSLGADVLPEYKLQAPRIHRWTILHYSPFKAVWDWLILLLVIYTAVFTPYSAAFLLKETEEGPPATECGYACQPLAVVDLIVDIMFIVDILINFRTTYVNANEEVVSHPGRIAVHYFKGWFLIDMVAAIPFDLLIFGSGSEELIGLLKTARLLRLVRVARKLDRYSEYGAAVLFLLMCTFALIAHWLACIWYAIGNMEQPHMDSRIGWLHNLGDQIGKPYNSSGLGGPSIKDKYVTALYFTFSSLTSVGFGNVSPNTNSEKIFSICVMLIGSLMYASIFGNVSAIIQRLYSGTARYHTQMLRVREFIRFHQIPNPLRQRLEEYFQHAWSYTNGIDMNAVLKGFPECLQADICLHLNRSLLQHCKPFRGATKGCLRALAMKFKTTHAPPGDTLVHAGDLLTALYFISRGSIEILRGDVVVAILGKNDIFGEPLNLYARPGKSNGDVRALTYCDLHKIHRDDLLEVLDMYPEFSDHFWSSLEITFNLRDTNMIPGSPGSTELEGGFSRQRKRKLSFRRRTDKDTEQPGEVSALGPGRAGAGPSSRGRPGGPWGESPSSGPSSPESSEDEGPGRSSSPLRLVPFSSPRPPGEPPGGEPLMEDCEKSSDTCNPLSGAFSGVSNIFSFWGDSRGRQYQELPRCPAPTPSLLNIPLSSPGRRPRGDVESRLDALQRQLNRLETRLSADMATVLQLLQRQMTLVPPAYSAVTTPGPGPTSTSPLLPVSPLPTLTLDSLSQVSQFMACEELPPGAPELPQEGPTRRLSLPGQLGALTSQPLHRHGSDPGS
Scale: log10; quantity: Ki; unit before log: nM

Known log10(Ki) results, listed for orientation:
compound: Nc1ccnc(N2CCC3(CC2)OC(c2ccccc2)c2ccccc23)c1 (stereo unspecified)
observedResult: 1.26
--
compound: COc1cccc(C2(C)CN(c3cc(N)ccn3)C2)c1
observedResult: 3.26
--
compound: COc1cccc(C(=O)N(c2ccccn2)C2CCN(c3cc(N)ccn3)CC2)c1
observedResult: 3.99
--
compound: Nc1ccnc(N2CCC(NC(=O)c3ccccn3)(c3ccccc3)CC2)c1
observedResult: 2.74
--
compound: Nc1ccnc(N2CCC(n3c(=O)n(CC4CC4)c4cccnc43)CC2)c1
observedResult: 2.87

Note: attention shifts to another entry.
Query: For the compound COc1ccc(C(=O)NC2(c3ccccc3)CCN(c3cc(N)ccn3)CC2)cc1Cl , give its reported log10(Ki).
Reply: 2.54

* * *

target: Delta-type opioid receptor (Homo sapiens, UniProt P41143); experiment: Agonist activity at delta opioid receptor expressed in CHO cells assessed as inhibition of forskolin-stimulated cAMP production by ALPHAscreen assay
Sequence (P41143 whole entry): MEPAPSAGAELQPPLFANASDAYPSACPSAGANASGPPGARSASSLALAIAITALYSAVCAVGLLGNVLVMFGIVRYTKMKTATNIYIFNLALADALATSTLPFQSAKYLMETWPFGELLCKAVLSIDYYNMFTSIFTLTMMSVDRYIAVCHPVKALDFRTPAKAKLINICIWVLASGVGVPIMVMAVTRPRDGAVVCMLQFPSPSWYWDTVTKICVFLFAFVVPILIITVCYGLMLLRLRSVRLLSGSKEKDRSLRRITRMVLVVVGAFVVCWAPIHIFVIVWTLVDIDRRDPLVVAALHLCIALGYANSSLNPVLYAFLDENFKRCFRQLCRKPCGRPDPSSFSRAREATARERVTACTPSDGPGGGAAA
Field: EC50. Provide a value for each of the molecules that follow.

Reference set (3 entries):
molecule: Nc1ccnc(N2CCC3(CC2)OC(c2ccccc2)c2ccccc23)c1 (centres undefined)
experimentalSystem: Delta-type opioid receptor (Homo sapiens, UniProt P41143)
EC50: 59 nM

molecule: COc1ccc(CNC(=O)C2(c3ccccc3)CCN(c3cc(N)ccn3)CC2)cc1
experimentalSystem: Delta-type opioid receptor (Homo sapiens, UniProt P41143)
EC50: 17 nM

molecule: Nc1ccnc(N2CCC(NC(=O)[C@@H]3CCCO3)(c3ccccc3)CC2)c1
experimentalSystem: Delta-type opioid receptor (Homo sapiens, UniProt P41143)
EC50: 171 nM

Query: Consider the molecule Nc1ccnc(N2CCC(C(=O)N3CCc4ccccc4C3)(c3ccccc3)CC2)c1 and give its recorded EC50.
Reply: 13 nM

* * *

Kindly supply the reported EC50 values for the records listed here.
target: Delta-type opioid receptor (Homo sapiens, UniProt P41143); experiment: Agonist activity at delta opioid receptor expressed in CHO cells assessed as inhibition of forskolin-stimulated cAMP production by ALPHAscreen assay
One number for each entry, in nM.

chemicalStructure: COc1cccc(C2(C)CN(c3cc(N)ccn3)C2)c1
EC50, nM: 846

chemicalStructure: CN(C)C(=O)[C@H]1CC2(CCN(c3cc(N)ccn3)CC2)c2ccccc21
EC50, nM: 27

chemicalStructure: Nc1ccnc(N2CCC(NC(=O)c3ccccn3)(c3ccccc3)CC2)c1
EC50, nM: 60

chemicalStructure: Nc1ccnc(N2CCC3(CC2)OCc2ccccc23)c1
EC50, nM: 308

chemicalStructure: CCOC(=O)N1CCN(C(=O)C2(c3ccccc3)CCN(c3cc(N)ccn3)CC2)CC1
EC50, nM: 24

chemicalStructure: CCN(CC)C(=O)[C@H]1OC2(CCN(c3cc(N)ccn3)CC2)c2ccccc21
EC50, nM: 12

chemicalStructure: Nc1ccnc(N2CCC(C(=O)Nc3ccc4ccccc4n3)(c3ccccc3)CC2)c1
EC50, nM: 5

chemicalStructure: COc1ccc(C(=O)NC2(c3ccccc3)CCN(c3cc(N)ccn3)CC2)c(OC)c1
EC50, nM: 14

Provide each entry's EC50 from the list below.
1. CC(=O)C1(c2ccccc2)CCN(c2cc(N)ccn2)CC1
2. COc1ccc(C(=O)NC2(c3ccccc3)CCN(c3cc(N)ccn3)CC2)cc1Cl

Reply:
1: 263; 2: 59

* * *

test: Selectivity for human recombinant DOR over mu opioid receptor
assayMetric: fold change (FC)
Answers are plain numbers.

Could I get fold change (FC) for every one of these entries?
1. CCN(CC)C(=O)[C@H]1OC2(CCN(c3cc(N)ccn3)CC2)c2ccccc21
2. Nc1ccnc(N2CCC3(CC2)OCc2ccccc23)c1
3. CN(C)C(=O)[C@H]1CC2(CCN(c3cc(N)ccn3)CC2)c2ccccc21
4. COc1cccc(C2(C)CN(c3cc(N)ccn3)C2)c1
5. CCOC(=O)N1CCN(C(=O)C2(c3ccccc3)CCN(c3cc(N)ccn3)CC2)CC1
6. Nc1ccnc(N2CCC(NC(=O)[C@@H]3CCCO3)(c3ccccc3)CC2)c1
7. CC(=O)C1(c2ccccc2)CCN(c2cc(N)ccn2)CC1

Reply:
50
50
50
2
17
50
50

* * *

test: Metabolic stability in human liver microsomes assessed as intrinsic clearance; assay type: ADME, Microsome
Kindly state microsomal CLint for each of the entries shown.

Here is how some molecules turned out for microsomal CLint.
chemicalStructure: Nc1ccnc(N2CCC(N(C(=O)C3CC3)c3ccccn3)CC2)c1
microsomal CLint: < 7 µL/min/mg
//
chemicalStructure: CC(=O)C1(c2ccccc2)CCN(c2cc(N)ccn2)CC1
microsomal CLint: < 7 µL/min/mg

Query: Determine its reported microsomal CLint: CN(C)C(=O)[C@H]1CC2(CCN(c3cc(N)ccn3)CC2)c2ccccc21
Reply: < 7 µL/min/mg

* * *

I'd appreciate it if you could supply fold change (FC) values for the items below.
experiment: Selectivity for human recombinant DOR over mu opioid receptor

Some solved entries appear below for comparison.
compound: COc1ccc(CNC(=O)C2(c3ccccc3)CCN(c3cc(N)ccn3)CC2)cc1
observedResult: 50

compound: Nc1ccnc(N2CCC3(CC2)OC(c2ccccc2)c2ccccc23)c1 (stereo not drawn)
observedResult: 50

Consider now this further compound.
Query: Determine from records and report fold change (FC) for COc1ccc(C(=O)NC2(c3ccccc3)CCN(c3cc(N)ccn3)CC2)c(OC)c1
Reply: 50
